# TARGET_OR_TEST_SYSTEM: G protein-activated inward rectifier potassium channel 2 (Homo sapiens)
# RUN_DESCRIPTION: activators of human GIRK2 potassium channels (AID 1259325)
# CONDITIONS: HEK293-GIRK2 thallium flux, Thallos fluorescence, MPD
Among all 63,000 compounds or so, about 30 (0.05%) were called active. These entries were drawn from the full list.
ENDPOINT_NAME: outcome

Previously resolved entries follow.
COc1cc(NC(=O)c2cnccn2)ccc1N1CCCC1=O : inactive
O=C(CSc1cc(C(F)(F)F)c2cc3c(cc2n1)OCO3)NCc1ccco1 : inactive
COCCn1c(SCc2nc(-c3ccc(Cl)cc3)no2)nc2cc3c(cc2c1=O)OCO3 : inactive
COc1ccc(-c2ccc(C)c(NC(=O)c3cc4ccccc4oc3=O)c2)nn1 : inactive

Shifting focus to the molecule that follows.
Report outcome, nothing else, for this molecule: O=C(O)CCC/C=C\C[C@@H]1C(/C=C/[C@@H](O)COc2cccc(C(F)(F)F)c2)[C@H](O)C[C@@H]1O (stereo not given in full)
inactive

###

# TARGET_OR_TEST_SYSTEM: G protein-activated inward rectifier potassium channel 2 (Homo sapiens)
# RUN_DESCRIPTION: activators of human GIRK2 potassium channels (AID 1259325)
# CONDITIONS: HEK293-GIRK2 thallium flux, Thallos fluorescence, MPD
The campaign covered roughly 63,000 compounds. About 30 (0.05%) were called active. These entries were drawn from the full list.
ENDPOINT_NAME: outcome

Previously resolved entries follow.
COc1cc(-c2nc(CSc3nc4ccccc4c(=O)n3C)c(C)o2)cc(OC)c1OC : inactive
Cc1nnc(NC(=O)C2CCN(c3ccc(-c4ccco4)nn3)CC2)s1 : inactive
Cc1cccc(Cn2c(N3CCC(C(N)=O)CC3)nc3c2c(=O)[nH]c(=O)n3C)c1 : inactive
COc1ccccc1OCC#CCNC(=O)CSc1nc2ccccc2s1 : inactive

Report outcome, nothing else, for this molecule: "O=C(COc1ccc(Cl)cc1)Nc1ccc(N2CCCCS2(=O)=O)cc1"
inactive

Source: PubChem BioAssay AID1259325
